The reported measurements were obtained from PubChem BioAssay AID1508591.

Listed here: items and their measured log10 of half-life.
conditions: rat; liver microsomes; pH 7.4; 15.0 min; 1.0 µM
measured-endpoint: log10 of half-life (log10 of the value in min)

compound	log10 of half-life
CCOc1ccccc1N(CC(=O)Nc1cc(OC)ccc1OC)S(=O)(=O)c1ccccc1	0.14
COC(=O)c1ccc(NS(=O)(=O)c2c(C)nc3sccn3c2=O)cc1	0.59
COc1ccc(CNC(=O)c2cnc3ccccc3n2)cc1	0.97
CC1CCN(S(=O)(=O)c2ccc3c(c2)C(C)(C)C(=O)N3CC(=O)NCc2ccco2)CC1	0.26
Cc1sc2c(c1C)C(c1ccc(Cl)cc1)=N[C@@H](CC(=O)Nc1ccc(OCCOCCOCCOCCNc3cccc4c3C(=O)N(C3CCC(=O)NC3=O)C4=O)cc1)c1nnc(C)n1-2 (stereo not given in full)	0.10
COc1ccc(-n2c(C)c(C(C)=O)c3ccccc32)cc1	0.38
CC(C)(O)Cn1c(NC(=O)c2ccc(-c3cn[nH]c3)s2)nc2cc(CN3CCOCC3)ccc21	1.15
COc1cc(-c2nc(-c3c(C)noc3C)cc3c2cc(C)n3CCN(C)C)ccn1	1.29
CCCNC(=O)c1ccc2c(c1)ncn2-c1cc(C)cc(C)c1	1.23
Cc1nn(Cc2ccc(Cl)cc2)c(C)c1NC(=O)c1cc(-c2ccc3c(c2)OCO3)on1	0.81
COC(=O)C1=C(C)NC(C)=C(C(=O)OCCCN2CCC(c3ccccc3)(c3ccccc3)CC2)C1c1cccc([N+](=O)[O-])c1 (stereo not given)	0.71
Cc1ccc(-c2cc(C(=O)Nc3ncco3)c3ccccc3n2)cc1C	0.76
COC(=O)c1ccccc1NC(=O)c1ccccc1OC(F)F	0.45
O=c1cc(CN2CCCN(c3ccc(C(F)(F)F)cn3)CC2)nc2ccccn12	0.94
CC(C)COc1ccc(-c2csc(N3CCC(C(N)=O)CC3)n2)cc1	0.86
CCN(CC)CCOc1ccc(Cc2ccccc2)cc1	0.24
C=CCc1cccc(CNc2ccc(S(=O)(=O)Nc3nccs3)cc2)c1O	1.28
Cc1cccc2c1NC(=O)/C2=C/c1cc(Cl)c(O)c(Cl)c1	1.41
Cc1noc(C)c1C(=O)N1CCC2(CCCN(C(c3ccccc3)c3ccccc3)C2)CC1	0.23
CC(=O)c1c(C)[nH]c(C(=O)Nc2cccc([S+](=O)([O-])Nc3ccccc3)c2)c1C	0.62
Cc1cc(C)c(C(=O)Nc2cccc([S+](=O)([O-])N3CCCCC3)c2)[nH]1	0.48
Fc1ccc(Nc2nc(C3=CCNCC3)nc3ccccc23)cc1F	0.79
COc1ccccc1OCCNCC(O)COc1cccc2[nH]c3ccccc3c12 (stereo not given)	0.18
CCOC(=O)c1ccc(-n2c(C)cc(-c3nnc4n3CCCCC4)c2C)cc1	0.43

----------
conditions: rat; liver microsomes; pH 7.4; 15.0 min; 1.0 µM
Field: label. Allowed values: class 1 (half-life < 20 min) or class 0 (half-life >= 20 min).

> print(dat)
                                 smiles.data  category.label
 1              NC(=O)C1CCN(c2ncc(Br)cn2)CC1         class 0
 2                     Oc1cccc2nc3ccccc3nc12         class 1
 3  Fc1ccc(Nc2nc(-c3ccnc4ccccc34)nc3ccccc23)cc1F         class 0
 4        O=C(Nc1ccc(Cl)cc1Cl)c1cnc2ccccc2n1         class 1
 5  NC(=O)C1CCN(c2nc(-c3ccc(Oc4ccccc4)cc3)cs2)CC1         class 1
 6  COC[C@@H]1CN(C(=O)c2nn(C)c3ccccc23)C[C@H]1c1nc(C)no1         class 0
 7       O=C(NC1CC1)c1nc(-c2cccnc2)c2ccccn12         class 0
 8  CN1C(=O)C(=O)N2C(=C[C@]3(c4c[nH]c5ccccc45)c4ccccc4N[C@H]23)C1=O         class 1
 9  NC(CO)(CO)CCc1ccc(Sc2cccc(OCc3ccccc3)c2)cc1Cl         class 0
10  CC(C)C(=O)Nc1cccc(NC(=O)c2cc3ccccc3o2)c1         class 0
11  Cc1ccc(-c2csc(CCn3nc(C)c4c(C(F)(F)F)cc(=O)[nH]c43)n2)cc1         class 1
12  COc1cccc(NC(=O)c2cccc3c(=O)c4c([nH]c23)CCCC4)c1         class 1
13  O=C(Nc1cccc(S(=O)(=O)C(F)(F)F)c1)c1ccccc1NC(=O)c1ccccc1OCC(F)(F)F         class 0

----------
settings: rat; liver microsomes; pH 7.4; 15.0 min; 1.0 µM
Listed here: items and their measured half-life.
measured-endpoint: half-life

> print(dat)
                                smiles.data  measured.endpoint  observed.value
1  COc1ccc(NC(C)=O)cc1S(=O)(=O)Nc1ccc(Br)cc1          half-life        > 30 min
2  CN(c1ncccc1CNc1nc(Nc2ccc3c(c2)CC(=O)N3)ncc1C(F)(F)F)S(C)(=O)=O          half-life        > 30 min
3  Cc1ccc(C(N)=O)cc1Nc1nccc(-c2cn(C(C)C)c3cnccc23)n1          half-life        > 30 min

----------
details: rat; liver microsomes; pH 7.4; 15.0 min; 1.0 µM
Listed here: items and their measured half-life.
measured-endpoint: half-life (min)

> print(dat)
                                    molecule  measured.endpoint  sign  observed.value
 1  CC(C)c1ccc(-n2ncc3c(=O)n(CC(=O)Nc4cc(F)ccc4Cl)cnc32)cc1          half-life     =              20
 2  CC1(C)C[C@@H]2C[C@@](C)(CN2S(=O)(=O)c2ccc(C(=O)Nc3ccc(Cl)c(S(=O)(=O)N4CCOCC4)c3)cc2)C1          half-life     =            3.95
 3  Clc1ccccc1-c1nc(NCc2ccc(-c3cccnc3)cc2)c2ccccc2n1          half-life     =            6.99
 4  COc1cccc(CNc2ccc(S(=O)(=O)Nc3cccc(N4CCNCC4)c3)cc2)c1O          half-life     >              30
 5  CC(=O)c1cccc(-c2csc(N3CCC(C(N)=O)CC3)n2)c1          half-life     =            2.21
 6  O=C(Nc1ccc(OC(F)(F)Cl)cc1)c1cnc(N2CC[C@@H](O)C2)c(-c2ccn[nH]2)c1          half-life     >              30
 7  COc1ccc(CNC(=O)CCCn2nc(C)c3c(C)n(-c4ccc(C)cc4)nc3c2=O)cc1OC          half-life     =            4.18
 8  Nc1ncccc1-c1nc2ccc(-c3ccccc3)nc2n1-c1ccc(C2(N)CCC2)cc1          half-life     >              30
 9  O=C(O)c1cn(C2CC2)c2cc(N3C[C@@H]4C[C@H]3CN4)c(F)cc2c1=O          half-life     >              30
10  C[C@H]1CN(C(=O)Nc2ccc(F)cc2)C[C@@H]1c1nc(-c2ccccc2)no1          half-life     >              30
11  CCCCOc1ccc(C2c3c(oc4ccc(C)cc4c3=O)C(=O)N2CCCN(C)C)cc1OCC (stereo not drawn)          half-life     =            25.9
12  FC(F)(F)c1ccccc1-c1nc(NCc2ccc(Cl)cc2)c2ccccc2n1          half-life     >              30
13  Cn1c(CN2CCCCC2)nc2cc(NC(=O)c3cccc(Br)c3)ccc21          half-life     >              30
14  CC(=O)Nc1ccc(OCc2cn(CC(=O)c3ccc(O)cc3)nn2)cc1          half-life     >              30
15  CCCN1C(CC(C)C)=NS(=O)(=O)c2cc(NC(=O)c3cccs3)ccc21          half-life     =            4.56
16  Cc1cccc(-n2cnc3cc(C(=O)N4CCCC(C)(C)C4)ccc32)c1          half-life     =             1.6
17   COc1ccc(-c2ccc3ncc(Nc4ccncc4)n3n2)cc1OC          half-life     =              23
18  Cc1ccc2oc3c(c(=O)c2c1)C(c1ccc(O)cc1)N(CCCN(C)C)C3=O (stereo not drawn)          half-life     >              30
19  Cc1nc2sccn2c(=O)c1S(=O)(=O)Nc1ccc(N2CCN(S(C)(=O)=O)CC2)cc1          half-life     >              30
20            Cc1cccc(NCc2ccc(O)c3ncccc23)c1          half-life     =             2.2
21    N#Cc1c(NC(=O)c2cccc3ccccc23)sc2c1CCCC2          half-life     =            7.59
22  O=C(O)c1ccc(O)c2ncc(N3CCCN(CCc4cccc5ccccc45)CC3)cc12          half-life     >              30
23  Oc1cccc(-c2nc(N3CCOCC3)c3oc4ncccc4c3n2)c1          half-life     =            21.8
